- Assayed System: T1, human prolactin receptor (PRLR) (human, UniProt P16471 25-622)
- T1 sequence: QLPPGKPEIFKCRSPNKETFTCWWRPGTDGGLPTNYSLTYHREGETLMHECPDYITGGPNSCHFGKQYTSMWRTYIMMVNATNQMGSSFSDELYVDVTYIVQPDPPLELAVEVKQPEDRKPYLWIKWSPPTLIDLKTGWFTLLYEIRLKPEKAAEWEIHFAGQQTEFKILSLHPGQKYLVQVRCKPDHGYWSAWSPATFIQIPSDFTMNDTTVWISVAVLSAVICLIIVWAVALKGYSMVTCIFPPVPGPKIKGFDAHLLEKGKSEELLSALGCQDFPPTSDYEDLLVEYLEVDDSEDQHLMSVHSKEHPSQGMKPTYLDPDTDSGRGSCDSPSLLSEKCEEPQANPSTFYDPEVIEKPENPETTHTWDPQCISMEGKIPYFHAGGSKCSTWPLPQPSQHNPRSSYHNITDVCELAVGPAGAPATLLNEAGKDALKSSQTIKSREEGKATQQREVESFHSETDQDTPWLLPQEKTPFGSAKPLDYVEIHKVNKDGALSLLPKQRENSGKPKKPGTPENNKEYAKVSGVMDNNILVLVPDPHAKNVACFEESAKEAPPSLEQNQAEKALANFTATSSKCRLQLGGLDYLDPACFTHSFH
- Assay Protocol: cell-based or functional assay
Consider the following binders and their measured % Kill, MCF7/PRLR cells readings.
Dear colleague, please return just the value in %, with no unit written.

Solved cases below.
H1H6958N2-DM1 (antibody, human IgG1, V domains shown, DM1 conjugated through SMCC linker; attachment residues not stated) VH: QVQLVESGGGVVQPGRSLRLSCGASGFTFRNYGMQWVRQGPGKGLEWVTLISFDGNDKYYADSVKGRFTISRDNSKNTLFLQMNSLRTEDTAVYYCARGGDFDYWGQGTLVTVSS VL: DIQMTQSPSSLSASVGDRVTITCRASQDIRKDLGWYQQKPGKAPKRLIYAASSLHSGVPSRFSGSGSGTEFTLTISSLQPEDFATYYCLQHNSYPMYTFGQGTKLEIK; 77
H1H6975N-DM1 (antibody, human IgG1, V domains shown, DM1 conjugated through SMCC linker; attachment residues not stated) VH: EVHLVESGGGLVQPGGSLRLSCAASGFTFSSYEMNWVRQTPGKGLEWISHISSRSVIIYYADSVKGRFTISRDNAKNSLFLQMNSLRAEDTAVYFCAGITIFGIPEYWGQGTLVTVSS VL: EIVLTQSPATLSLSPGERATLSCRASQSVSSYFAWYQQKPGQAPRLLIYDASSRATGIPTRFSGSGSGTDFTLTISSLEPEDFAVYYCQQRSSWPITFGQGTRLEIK; 87

I am curious: what % Kill, MCF7/PRLR cells value has been reported for H1H6793P-DM1 (antibody, human IgG1, V domains shown, DM1 conjugated through SMCC linker; attachment residues not stated) VH: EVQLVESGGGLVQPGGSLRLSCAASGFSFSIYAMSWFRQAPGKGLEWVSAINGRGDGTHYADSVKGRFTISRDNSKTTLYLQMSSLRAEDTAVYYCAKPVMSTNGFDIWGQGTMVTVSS VL: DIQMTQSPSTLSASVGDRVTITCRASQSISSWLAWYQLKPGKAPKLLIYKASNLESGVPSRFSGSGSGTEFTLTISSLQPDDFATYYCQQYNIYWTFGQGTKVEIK ?
87
